# subject.of.test: T1, CTLA4-Fc fusion protein (human, biotinylated where used as CTLA4-Fc-Biotin (Examples 5.1-5.3))
# T1 construct: expressed in HEK293 cells; also called human CTLA4-Fc protein; CTLA4-Fc antigen protein
# measurement.notes: ELISA OD ratio, value equals OD(CTLA4)/OD(Fc)
Form field: ODa/OD blank (one value per entry).

binder	ODa/OD blank
CTLA4 heavy chain single domain antibody No. J29 (VHH, Camel VHH expressed in E. coli (PET32b), nickel-purified) VHH: QVQLQESGGGLVQPGGSLRLSCAASGFTISSYTMTWLHQAPGKGLEWVSTINSGGSTAYADSVKGRFAISRDNAKNTLYLQLNSLKIEDTGMYYCQGGLTQRGQGTQVTVSS	40
CTLA4 heavy chain single domain antibody No. C27 (VHH, Camel VHH expressed in E. coli (PET32b), nickel-purified) VHH: QVQLQESGGGSVQAGGSLRLSCAASGYIYSAYCMGWFRQAPGKERVGVAAISIGGGSTYYADSVKGRFTISQDNAKNTLYLQMNSLKPEDTAMYYCAADVIPTETCLGGSWSGPFGYWGQGTQVTVSS	26.7
CTLA4 heavy chain single domain antibody No. C38 (VHH, Camel VHH expressed in E. coli (PET32b), nickel-purified) VHH: QVQLQESGGGSVQAGGSLRLSCAASRYTASSNCMAWFRQAPGKEREGVATIYNGGGSTAYADSVKGRFTISQDNAKNTVYLQMNSLKPEDTAMYYCGAGSPRFCASATMTGGHHLFGYWGQGTQVTVSS	22.7
CTLA4 heavy chain single domain antibody No. J69 (VHH, Camel VHH expressed in E. coli (PET32b), nickel-purified) VHH: QVQLQESGGGLVQPGGSLRLSCAASGFTLSSYSMTWLRQAPGKGLEWVSTINSGGSTSYADSVKGRFAISRDNAKNTLYLQLNSLEIEDTGMYYCQGGLTRGQGTQVTVSS	17.2
CTLA4 heavy chain single domain antibody No. J37 (VHH, Camel VHH expressed in E. coli (PET32b), nickel-purified) VHH: QVQLQESGGGSVQAGGTLRLSCAVSGVTYSPHCMGWFRQAPGKEREGVAAIYNGGGSTAYADSVKGRFTISQDNAKNTVYLQMNSLKPEDTAMYYCGAGSPRFCASATMTGGHHLFGYWGQGTQVTVSS	35.3
CTLA4 heavy chain single domain antibody No. C29 (VHH, Camel VHH expressed in E. coli (PET32b), nickel-purified) VHH: QVQLQESGGGSVQAGGSLRLSCAVSGYTYSGYCMGWFRQAPGKEREGVAAISRGDGSPGYADSVKGRFTISQDNAKNTLYLQMNSLKPEDTAMYYCAADVIPTETCSYGSWSGPNGYWGQGTQVTVSS	17.8
CTLA4 heavy chain single domain antibody No. 155 (VHH, Camel VHH expressed in E. coli (PET32b), nickel-purified) VHH: QVQLQESGGGPVQAGGSLRLSCAVSKYPYSGSCMGWFRQAPGKEREGVAAMFTGTGSTYYADSVKGRFTISQNVAKNTLDLQMNSLKPEDTAMYYCAVDLLPRSTRCLDYGLRTYNYWGQGTQVTVSS	33.8
CTLA4 heavy chain single domain antibody No. 145 (VHH, Camel VHH expressed in E. coli (PET32b), nickel-purified) VHH: QVQLQESGGGSVQAGGSLRLSCAASGYTYSSYSMGWFRQAAGKEREGVAAIDSDGSTSYADSVKGRFTISQDNAKNTLYLQMNSLEPEDTAMYYCAATAGWYAARHALSPLFFGYWGQGTQVTVSS	22.9
CTLA4 heavy chain single domain antibody No. J42 (VHH, Camel VHH expressed in E. coli (PET32b), nickel-purified) VHH: QVQLQESGGGSVQAGGSLRLSCAASGYTYSSYNSNCMGWFRQAPGKEREGVAAIDSDGSTSYADSVKGRFTISKDNAKNTLYLQMNSLKPEDTAMYYCAASPRTCEVFSLGGSWHLFGYWGQGTQVTVSS	24.1
CTLA4 heavy chain single domain antibody No. C16 (VHH, Camel VHH expressed in E. coli (PET32b), nickel-purified) VHH: QVQLQESGGGSVQAGGSLTLSCAASGYTGDLVAWFRQTPGKEREGVAAISRTGLTTYYADSVKGRFTISQDTAKNTGYLQMNSMKPEDTAMYYCVAGWHVGGTWYKTSSYDYWGQGTQVTVSS	33.7
CTLA4 heavy chain single domain antibody No. 128 (VHH, Camel VHH expressed in E. coli (PET32b), nickel-purified) VHH: QVQLQESGGGSVQAGGSLKLSCAASGYTDYTYNTSCMGWFRQTPGKERERVATVNKVGSTIYADSVKGRFTISKDNVKNTLYLQMNSLKPEDTAMYYCAARGSWSCSQFWGDFGYWGQGTQVTVSS	35.2
CTLA4 heavy chain single domain antibody No. 138 (VHH, Camel VHH expressed in E. coli (PET32b), nickel-purified) VHH: QVQLQESGGGSVQAGGSLTLSCAASGYANSNTCMGWFRQAPGKERERVAAISGVGTGTYYADSVKGRFTISRDNGKNTLFLQMNSLKPEDTAMYYCAAAPEGRAWCSRDPSGYNYWGQGTQVTVSS	45
CTLA4 heavy chain single domain antibody No. J78 (VHH, Camel VHH expressed in E. coli (PET32b), nickel-purified) VHH: QVQLQESGGGSVQAGGSLRLSCTVSQHTSRYYYMAWFRQAPGKEREGVASIWTGGGTPGYADSAKGRFTISADNAKNTIYLQMNSLKPEDTAMYYCAADDRGGRWSLGTMAVGGYKYWGQGTQVTVSS	5.2
CTLA4 heavy chain single domain antibody No. C22 (VHH, Camel VHH expressed in E. coli (PET32b), nickel-purified) VHH: QVQLQESGGGSVQAGGSLRLSCTVSQHTSRYYYMAWFRQAPGKEREGVASIWTGGGTPGYADSAKGRFTISTDNAKNTIYLQMNSLKPEDTAMYYCAADDRGGRWSLGTMAVGGYKYWGQGTQVTVSS	14.1
CTLA4 heavy chain single domain antibody No. 119 (VHH, Camel VHH expressed in E. coli (PET32b), nickel-purified) VHH: QVQLQESGGGSVQAGGSLRLSCAASEYTYHTNCMGWFRQAPGKEREGLAVMNPSGGVTYFADSVKGRFTISRDNAKNTVYLQMNSLKPEDTAMYYCAAGRGRCSGYSGYYNEWGQGTQVTVSS	14.5

Entry source: patent US20190315864A1
